All figures here come from PubChem BioAssay (NCI).

- System: EKVX NSCLC
- PROCEDURE DETAILS: NCI tumour cell line growth inhibition, 48 h; in the data active means GI50 below about 0.43 µM; inactive means the rest
Answer with one of the outcomes given here: active, inactive

Below, 9 compounds whose answers are already recorded.
1) N#Cc1nc(-c2cccc(Br)c2)cc(-c2ccc(Nc3nc(N4CCCCC4)nc(N4CCCCC4)n3)cc2)c1N = inactive
2) O=C(Nc1ccccc1Cl)c1cnc2ccc(C3CCNCC3)cn12 = inactive
3) CN(C)c1cccc2[nH]c(-c3[nH]ncc3Nc3ccnc(N)n3)nc12 = active
4) CCCCCCn1c(-c2ccc(C(=O)O/N=C(\N)c3ccc(OC)cc3)cc2)nc(-c2ccccc2)c1-c1ccccc1 = inactive
5) O=C(O)C(/C=C/c1ccco1)=N\Nc1nc(-c2ccc(Cl)cc2)cs1 = inactive
6) CNC(=O)c1cc(Oc2ccc3nc(NC(=O)Nc4ccc(Cl)c(Cl)c4)sc3c2)ccn1 = inactive
7) COC(=O)C1=CN(CC2=CC(=O)C(C)=CC2=O)C=C(C(=O)OC)C1c1cccc(OC)c1OC = inactive
8) Cc1ccc(NC(=O)c2ccnc(C(F)(F)F)c2)cc1-c1cc(OCCO)nc(N2CCOCC2)c1 = inactive
9) Nc1cc(N)c2nc(-c3ccccc3)c(Nc3ccc(F)cc3)nc2c1 = inactive

Data request: Which outcome did this test record for the compound "N#C/C(=C\c1cn(-c2ccccc2)c2ccccc12)C(=O)O" ?
Data returned: inactive

###

- System: OVCAR-5 ovarian
- PROCEDURE DETAILS: NCI tumour cell line growth inhibition, 48 h
VALUE TYPE: GI50

1) COc1cc2c(/C=C3/C(=O)Nc4ccccc43)c(Cl)n(Cc3ccccc3)c2cc1C = > 100 µM
2) CC(C)(C)Cn1c(N)nc2ccc(-c3[nH]c(C(C)(C)C)nc3-c3ccc(F)cc3)nc21 = 13.7 µM
3) O=C1N=C2c3c(sc4c3CCCC4)N=CN2C1N=Nc1ccc(Cl)cc1 (configuration not stated) = 22.6 µM
4) N#Cc1c(NC(=O)c2cccs2)[n+]([O-])c2ccccc2[n+]1[O-] = > 100 µM
5) C[C@]12CC[C@H]3[C@@H](CC=C4C[C@@H](O)CC[C@@]43C)[C@@H]1C/C(=C\c1cccc(OCCN3CCOCC3)c1)[C@@H]2O = > 100 µM

Data request: Item under review: "COc1ccc(-c2ccc(/C=N/n3cn[nH]c3=S)o2)c([N+](=O)[O-])c1" . Reported GI50?
Data returned: 97.1 µM

Data request: Same question, "CCN(CC)CCC(=O)Nc1cccc2c1C(=O)c1c(c(O)c3ccccc3c1O)C2=O" this time
Data returned: 14.6 µM

Data request: Same question, "OCCN(CO)CN(CN(CO)CCO)c1nc(N(CN(CO)CCO)CN(CO)CCO)nc(N(CN(CO)CCO)CN(CO)CCO)n1" this time
Data returned: 2.02 ng/mL

###

- Tested on: UACC-257 melanoma
- PROCEDURE DETAILS: NCI tumour cell line growth inhibition, 48 h
Measured TGI accompanies every entry in the list below.

Data request: Item under review: "CCCOc1ccc(/C=C\c2cc(OC)c(OC)c(OC)c2)cc1" . Reported TGI?
Data returned: > 100 µM

Data request: Same question, COc1cc(/C=C2\CCCC3=C2NC(N)=NC3c2cc(OC)c(OC)c(OC)c2)cc(OC)c1OC (stereo unspecified) this time
Data returned: 4.35 µM

###

- System: MALME-3M melanoma
- PROCEDURE DETAILS: NCI tumour cell line growth inhibition, 48 h; in the data active = GI50 below about 0.43 µM; inactive = the rest
Answer with one of the outcomes given here: active, inactive

1) CCOC(=O)c1cc2c(cc1Cl)SC(N(c1ccc(F)cc1)S(=O)(=O)c1ccc(OC)cc1)=NS2(=O)=O = inactive
2) COc1ccc(Cl)cc1N1C(=O)C(Cl)=C(Nc2cccc(O)c2)C1=O = inactive
3) N#Cc1c(NC(=O)c2cccs2)[n+]([O-])c2ccccc2[n+]1[O-] = inactive
4) C#Cc1cccc(NC(=O)Nc2ccc(NC(=O)CCl)cc2)c1 = inactive
5) COc1ccc(C2=NNC(c3ccc(-c4ccc(OC)cc4[N+](=O)[O-])o3)C2)cc1 (stereo unspecified) = active

Consider now this further molecule.
Data request: Which outcome did this test record for the molecule "N#C/C(=C\c1cn(-c2ccccc2)c2ccccc12)C(=O)O" ?
Data returned: inactive

###

- Test system: DU-145 prostate
- PROCEDURE DETAILS: NCI tumour cell line growth inhibition, 48 h
VALUE TYPE: TGI

1. CCCCCCN(C(=O)Oc1ccccc1)C(C#N)c1ccccc1 (stereo unspecified) = > 100 µM
2. OCCNc1nc(NCCO)nc(Nc2ccc(C3=NN(c4cc(Cl)cc(Cl)c4)C(c4ccc(Cl)cc4)C3)cc2)n1 (stereo unspecified) = 3.22 µM
3. Clc1cc(Cl)cc(N2N=C(c3cccc(Nc4ccncc4)c3)CC2c2ccccc2)c1 (stereo unspecified) = 6.51 µM
4. CC1CN=C(NCc2ccccc2)S1 (stereo unspecified) = > 100 µM
5. COc1ccc(NC=O)c(C(O)CCNC(C)=O)c1 (stereo unspecified) = > 100 µM

Data request: Item under review: C[N+](C)(C)CC1Cc2ccccc2C1=O (stereo unspecified) . Reported TGI?
Data returned: > 10 µM

Data request: Same question, COc1ccc(/C=C/C(=O)NCC(NC(=O)/C=C/c2ccc(OC)c(OC)c2)C(=O)O)cc1OC (stereo unspecified) this time
Data returned: > 100 µM

Data request: Same question, "CSC1=N/C(=C\c2cccs2)C(=O)N1CN1CCCCC1" this time
Data returned: > 100 µM

Data request: Same question, "O=C(CNC(=O)c1cccc2ccccc12)Nc1ccccc1Oc1cccc(O)c1" this time
Data returned: > 25 µM

Data request: Same question, "CSc1nc(=S)[nH]c2n[nH]c(C)c12" this time
Data returned: > 100 µM

Data request: Same question, "[N-]=[N+]=Nc1ncc(-c2ccc(C(F)(F)F)cc2)c(NC2CCCCCC2)n1" this time
Data returned: > 10 µM

###

- Tested on: MDA-N
- PROCEDURE DETAILS: NCI tumour cell line growth inhibition, 48 h
Measured TGI accompanies every entry in the list below.

1) Cc1cccc(C(C)O)n1 (configuration not stated) = > 100 µM
2) CC(=O)c1c2c(cc3c1CC1(Cc4cc5c(cc4C1)CCC5)C3)CCC2 = > 100 µM
3) Cc1ccc(S(=O)(=O)N(c2ccccc2F)C2CCCCC2O)cc1 (configuration not stated) = 50.1 µM
4) CCCCCCC(N)(CCCCCC)C(=O)Nn1c(C)ccc1C = > 100 µM
5) COc1ncnc2c(NC3OC(CO)C(O)C3O)ncnc12 (configuration not stated) = 22.8 µM

Data request: Item under review: CCCCCCCCCC(=O)OCC1(CO)C/C(=C/CC(C(C)C)C(C)C)C(=O)O1 (configuration not stated) . Reported TGI?
Data returned: > 100 µM

Data request: Same question, "CSc1nc(C)cc(Nc2ccc(O)c(CN3CCCCC3)c2)n1" this time
Data returned: 75.4 µM

###

- Tested on: SR leukemia
- PROCEDURE DETAILS: NCI tumour cell line growth inhibition, 48 h; in the data active = GI50 below about 0.43 µM; inactive = the rest
Answer with one of the outcomes given here: label 1 for active, label 0 for inactive

Below, 2 compounds whose answers are already recorded.
1. O=C(Nc1ccccc1Cl)c1cnc2ccc(C3CCNCC3)cn12 = label 0
2. O=C(CNC(=O)c1cccc2ccccc12)Nc1ccccc1Oc1cccc(O)c1 = label 0

Data request: Which outcome did this test record for the compound OCCNc1nc(NCCO)nc(Nc2ccc(C3=NN(c4cc(Cl)cc(Cl)c4)C(c4ccc(Cl)cc4)C3)cc2)n1 (centres undefined) ?
Data returned: label 0

Data request: Same question, "CN(C)c1cccc2[nH]c(-c3[nH]ncc3Nc3ccnc(N)n3)nc12" this time
Data returned: label 1

Data request: Same question, "Nc1nc(-n2cccn2)nc(-n2cccn2)c1Br" this time
Data returned: label 0

Data request: Same question, "CCCCCCn1c(-c2ccc(C(=O)O/N=C(\N)c3ccc(OC)cc3)cc2)nc(-c2ccccc2)c1-c1ccccc1" this time
Data returned: label 1

Data request: Same question, "C=C1C(=O)O[C@H]2[C@H]1CC/C(COC(=O)NCCc1ccc(OC)cc1)=C\CC[C@@]1(C)O[C@@H]21" this time
Data returned: label 0

Data request: Same question, "COC(=O)C1=CN(CC2=CC(=O)C(C)=CC2=O)C=C(C(=O)OC)C1c1cccc(OC)c1OC" this time
Data returned: label 0

Data request: Same question, "CC(=O)OCC(=O)[C@@]1(O)[C@H](C)C[C@H]2[C@@H]3C=C(C)C4=Cc5c(cnn5-c5ccc(F)cc5)C[C@]4(C)[C@H]3[C@@H](O)C[C@@]21C" this time
Data returned: label 0

###

- Test system: RXF 393 renal
- PROCEDURE DETAILS: NCI tumour cell line growth inhibition, 48 h
Measured TGI accompanies every entry in the list below.

1) CC(C)(C)Cn1c(N)nc2ccc(-c3[nH]c(C(C)(C)C)nc3-c3ccc(F)cc3)nc21 = 14.6 µM
2) O=c1nc2n(CCO)c(-c3ccccc3)c(-c3ccccc3)nc-2c(=O)[nH]1 = > 100 µM
3) CC1CCCc2c(-c3ccc(Cl)cc3)nc(N)c(C#N)c21 (centres undefined) = 93.2 µM

Data request: Which TGI is reported with RXF 393 renal for this entry: "CC(=NNC(=S)Nc1ccccc1C)c1cccc(C(C)=NNC(=S)Nc2ccccc2C)n1" ?
Data returned: > 100 µM

Data request: Same question, "NN/C(=N\S(=O)(=O)c1cc(Cl)c(Oc2ccc([N+](=O)[O-])cc2Cl)c(Cl)c1)Nc1ccc(Cl)cc1" this time
Data returned: 28.4 µM

Data request: Same question, "CC[C@@]1(O)C(=O)NCc2c1cc1n(c2=O)Cc2cc3cc4c(cc3nc2-1)OCO4" this time
Data returned: > 100 µM

Data request: Same question, "COc1ccccc1NC(=O)C(C#N)=C(SC)SC" this time
Data returned: > 100 µM

Data request: Same question, "O=C(O)C(/C=C/c1ccco1)=N\Nc1nc(-c2ccc(Cl)cc2)cs1" this time
Data returned: 28.4 µM
